assayed system: Human thrombin (Homo sapiens)
Construct: converts prothrombin (II) to thrombin (IIa); purchased Calbiochem, La Jolla, Calif
run description: Thrombin assay (chromogenic substrate)
Assay type: biochemical
measurement parameters: reported only as less than or greater than 30 uM; read-out: Thrombin (II) IC50
Attribute: IC50

compound: CC(C)Nc1ncc(-c2cc(N)cc(NC(=O)Nc3ccccc3)c2)n(CC(=O)NCc2ccc(C(=N)N)cc2)c1=O [Example 113]
IC50: > 30 µM

compound: CC(C)Nc1ncc(-c2cc(N)cc(C(=O)NC[Si](C)(C)C)c2)n(CC(=O)NCc2ccc(C(=N)N)cc2)c1=O [Example 12]
IC50: > 30 µM

compound: CC(C)Nc1ncc(-c2cc(N)cc(NS(=O)(=O)c3cccs3)c2)n(CC(=O)NCc2ccc(C(=N)N)cc2)c1=O [Example 91]
IC50: > 30 µM

compound: CC(C)Nc1ncc(-c2cc(N)cc(C(=O)NCc3cccc(O)c3)c2)n(CC(=O)NCc2ccc(C(=N)N)cc2)c1=O [Example 166]
IC50: > 30 µM

compound: CC(C)Nc1ncc(-c2cc(N)cc(NC(=O)CCC3CCCC3)c2)n(CC(=O)NCc2ccc(C(=N)N)cc2)c1=O [Example 107]
IC50: > 30 µM

compound: CCC(C)[C@H](NC(=O)c1cc(N)cc(-c2cnc(NC(C)C)c(=O)n2CC(=O)NCc2ccc(C(=N)N)cc2)c1)C(=O)O (stereo partly shown) [Example 85]
IC50: > 30 µM

compound: COC(=O)c1cc(N)cc(-c2c(Br)nc(NC(C)C)c(=O)n2CC(=O)NCc2ccc(C(=N)N)cc2)c1 [Example 4]
IC50: > 30 µM

compound: CCC(C)C(=O)Nc1cc(N)cc(-c2cnc(NC(C)C)c(=O)n2CC(=O)NCc2ccc(C(=N)N)cc2)c1.O=C(O)C(F)(F)F.O=C(O)C(F)(F)F (stereo not shown) [Example 131]
IC50: < 30 µM

compound: CC(C)Nc1ncc(-c2cc(N)cc(CCCc3ccccc3)c2)n(CC(=O)NCc2ccc(C(=N)N)cc2)c1=O [Example 76]
IC50: > 30 µM

compound: CC(C)Nc1ncc(-c2cc(N)cc(C(=O)NCc3cc(C(F)(F)F)cc(C(F)(F)F)c3)c2)n(CC(=O)NCc2ccc(C(=N)N)cc2)c1=O [Example 59]
IC50: > 30 µM

compound: CC(C)Nc1ncc(-c2cc(N)cc(OCC(C)(C)CN(C)C)c2)n(CC(=O)NCc2ccc(C(=N)N)cc2)c1=O.O=C(O)C(F)(F)F.O=C(O)C(F)(F)F [Example 217]
IC50: < 30 µM

compound: CC(C)Nc1ncc(-c2cc(N)cc(C(=O)N[C@H](C)C3CCCCC3)c2)n(CC(=O)NCc2ccc(C(=N)N)cc2)c1=O.O=C(O)C(F)(F)F [Example 81]
IC50: < 30 µM

compound: CC[C@@H](C)NC(=O)c1cc(N)cc(-c2cnc(NC(C)(C)C)c(=O)n2CC(=O)NCc2ccc(C(=N)N)cc2)c1 [Example 256]
IC50: < 30 µM

----------
Attribute: pIC50
assayed system: Human thrombin (Homo sapiens, UniProt P00734)
Construct: converts prothrombin (II) to thrombin (IIa); purchased Calbiochem, La Jolla, Calif
run description: Thrombin assay (chromogenic substrate)
Format: biochemical
measurement parameters: reported only as less than or greater than 30 uM; read-out: Thrombin (II) IC50
pIC50: −log10 of the molar value. Structures can show the parent of a compound that is named as a salt.
measured metric: pIC50

molecule: COC(=O)c1cc(N)cc(-c2ncc(NC(C)C)c(=O)n2CC(=O)NCc2ccc(C(=N)N)cc2)c1 [Example 1]
test result: < 4.52

molecule: CC(C)Nc1ncc(-c2cc(N)cc(NC(=O)C(C)C)c2)n(CC(=O)NCc2ccc(C(=N)N)cc2)c1=O [Example 50]
test result: > 4.52

molecule: CC(C)CS(=O)(=O)c1cc(N)cc(-c2cnc(NC(C)C)c(=O)n2CC(=O)NCc2ccc(C(=N)N)cc2)c1 [Example 74]
test result: < 4.52

molecule: CCNc1ncc(-c2cc(N)cc(C(=O)N[C@@H](C)CC)c2)n(CC(=O)NCc2ccc(C(=N)N)cc2)c1=O.O=C(O)C(F)(F)F.O=C(O)C(F)(F)F [Example 194]
test result: < 4.52

molecule: CC(C)Nc1ncc(-c2cc(N)cc(NC(=O)NCc3ccccc3)c2)n(CC(=O)NCc2ccc(C(=N)N)cc2)c1=O [Example 114]
test result: < 4.52

molecule: CC[C@@H](C)NC(=O)c1cc(N)cc(-c2cnc(NC(C)C)c(=O)n2CC(=O)NCc2c(O)cc(C(=N)N)cc2O)c1 [Example 199]
test result: < 4.52

molecule: CC[C@H](C)NC(=O)c1cc(N)cc(-c2cnc(NC3CC3)c(=O)n2CC(=O)NCc2ccc(C(=N)N)cc2)c1.O=C(O)C(F)(F)F.O=C(O)C(F)(F)F [Example 184]
test result: > 4.52

molecule: CCCC(CCC)C(=O)Nc1cc(N)cc(-c2cnc(NC(C)C)c(=O)n2CC(=O)NCc2ccc(C(=N)N)cc2)c1.O=C(O)C(F)(F)F.O=C(O)C(F)(F)F [Example 136]
test result: > 4.52

molecule: COCCNC(=O)c1cc(N)cc(-c2cnc(NC(C)C)c(=O)n2CC(=O)NCc2ccc(C(=N)N)cc2)c1.O=C(O)C(F)(F)F [Example 119]
test result: > 4.52

molecule: CC(C)Nc1ncc(-c2cc(N)cc(OC(C)C(=O)O)c2)n(CC(=O)NCc2ccc(C(=N)N)cc2)c1=O (stereo not shown) [Example 226]
test result: < 4.52

molecule: CC(C)Nc1ncc(-c2cc(N)cc(NS(=O)(=O)c3ccc4ccccc4c3)c2)n(CC(=O)NCc2ccc(C(=N)N)cc2)c1=O [Example 90]
test result: < 4.52

molecule: COC(=O)c1cc(N)cc(-c2cnc(NC(C)C)c(=O)n2CC(=O)NCc2c(F)c(O)c(C(=N)N)c(F)c2F)c1 [Example 20]
test result: < 4.52

molecule: COC(=O)c1ccc(CNC(=O)c2cc(N)cc(-c3cnc(NC(C)C)c(=O)n3CC(=O)NCc3ccc(C(=N)N)cc3)c2)cc1.O=C(O)C(F)(F)F [Example 169]
test result: > 4.52

molecule: CC(C)Nc1ncc(-c2cc(N)cc(C(=O)NCc3cccnc3)c2)n(CC(=O)NCc2ccc(C(=N)N)cc2)c1=O [Example 61]
test result: < 4.52

molecule: CC(C)Nc1ncc(-c2cc(N)cc(C(F)(F)F)c2)n(CC(=O)NCc2cc(O)c(C(=N)N)c(F)c2)c1=O.O=C(O)C(F)(F)F [Example 116]
test result: < 4.52

molecule: CC[C@H](C)NC(=O)c1cc(N)cc(-c2cnc(NC3CC3)c(=O)n2CC(=O)NCc2ccc(C(=N)N)cc2)c1 [Example 183]
test result: > 4.52

molecule: CCCC(C)C(=O)Nc1cc(N)cc(-c2cnc(NC(C)C)c(=O)n2CC(=O)NCc2ccc(C(=N)N)cc2)c1 (stereo not shown) [Example 104]
test result: > 4.52

molecule: CC(C)Nc1ncc(-c2cc(N)cc(NS(=O)(=O)c3ccccc3)c2)n(CC(=O)NCc2ccc(C(=N)N)cc2)c1=O [Example 96]
test result: < 4.52

molecule: CC(C)Nc1nc(Cl)c(-c2cc(N)ccc2SCc2ccccc2)n(CC(=O)NCc2ccc(C(=N)N)cc2)c1=O [Example 31]
test result: < 4.52

molecule: CC(CC(=O)Nc1cc(N)cc(-c2cnc(NC(C)C)c(=O)n2CC(=O)NCc2ccc(C(=N)N)cc2)c1)CC(C)(C)C.O=C(O)C(F)(F)F.O=C(O)C(F)(F)F (stereo not shown) [Example 139]
test result: > 4.52

molecule: CC[C@@H](C)NC(=O)c1cc(N)cc(-c2cnc(NC(C)C)c(=O)n2CC(=O)NCc2c(OC)cc(C(=N)N)cc2OC)c1 [Example 197]
test result: < 4.52

molecule: COC(=O)c1cc(N)cc(-c2cnc(NC(C)C)c(=O)n2CC(=O)NCc2ccc(C(=N)N)cc2)c1 [Example 21, Trifluoroacetate]
test result: < 4.52

molecule: CC[C@@H](C)Nc1ncc(-c2cc(N)cc(C(=O)N[C@@H](C)CC)c2)n(CC(=O)NCc2ccc(C(=N)N)cc2)c1=O.O=C(O)C(F)(F)F.O=C(O)C(F)(F)F [Example 203]
test result: > 4.52

molecule: CC(C)Nc1ncc(-c2cc(N)cc(C(=O)NCc3ccccc3)c2)n(CC(=O)NCc2ccc(C(=N)N)c(O)c2)c1=O.O=C(O)C(F)(F)F [Example 161]
test result: < 4.52

molecule: COC(=O)c1cc(N)cc(-c2cnc(NC(C)C)c(=O)n2CC(=O)NCc2ccc(C(=N)N)c(O)c2)c1 [Example 77]
test result: < 4.52

Every entry's value here was drawn from patent US20040106626A1.
